These measurements were taken from patent US10381110B2.

target desc: dopamine D1 (Homo sapiens, UniProt P21728)
Sequence (P21728 whole entry): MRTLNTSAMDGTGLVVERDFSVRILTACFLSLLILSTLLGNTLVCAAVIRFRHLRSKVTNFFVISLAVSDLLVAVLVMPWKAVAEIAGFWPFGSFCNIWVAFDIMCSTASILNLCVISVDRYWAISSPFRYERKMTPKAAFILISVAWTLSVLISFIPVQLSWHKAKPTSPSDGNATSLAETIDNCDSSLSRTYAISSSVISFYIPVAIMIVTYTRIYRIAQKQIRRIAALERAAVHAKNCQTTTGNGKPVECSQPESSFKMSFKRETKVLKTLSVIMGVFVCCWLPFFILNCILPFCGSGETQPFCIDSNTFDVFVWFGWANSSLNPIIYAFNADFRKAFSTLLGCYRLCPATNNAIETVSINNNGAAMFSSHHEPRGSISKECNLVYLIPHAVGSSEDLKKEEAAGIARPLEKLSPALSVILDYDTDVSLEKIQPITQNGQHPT
method notes: Secondary radioligand binding assay (Ki)
readout label: Ki (µM)
State just the number; it will be interpreted in µM.

Which Ki is reported for this compound? CC1Cc2ccccc2N1C(=O)CN1CCN(Cc2ccccc2)CC1 (stereo not shown) [STT-00185638]
6.36

* * *

target desc: α1B (Alpha1B) (Homo sapiens, UniProt P35368)
Sequence (P35368 1-520): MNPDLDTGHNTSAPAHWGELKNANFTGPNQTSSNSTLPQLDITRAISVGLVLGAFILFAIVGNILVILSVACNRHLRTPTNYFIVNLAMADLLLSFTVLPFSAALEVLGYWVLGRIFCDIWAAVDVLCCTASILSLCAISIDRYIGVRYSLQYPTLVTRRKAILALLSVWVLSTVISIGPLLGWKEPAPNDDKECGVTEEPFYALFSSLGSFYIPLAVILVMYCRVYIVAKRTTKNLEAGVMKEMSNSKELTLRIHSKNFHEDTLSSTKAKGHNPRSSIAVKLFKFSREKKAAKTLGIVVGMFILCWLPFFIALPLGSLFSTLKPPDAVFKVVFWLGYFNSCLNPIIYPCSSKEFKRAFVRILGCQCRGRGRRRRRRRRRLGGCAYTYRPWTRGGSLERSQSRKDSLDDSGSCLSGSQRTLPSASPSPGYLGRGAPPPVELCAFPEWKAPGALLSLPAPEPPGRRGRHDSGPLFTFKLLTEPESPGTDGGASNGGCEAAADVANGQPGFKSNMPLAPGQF
method notes: Secondary radioligand binding assay (Ki)
condition info: read-out: Experimental Receptor Binding Data-Ki ALPHA_1B; Table 25, GPCR panel
readout label: Ki (nM)
A number alone suffices; assume nM.

These solved cases illustrate the format of a correct answer.
1) COc1ccc2c(c1)C(=O)N(CCN1CCN(c3ccccc3OC)CC1)C2 38.7
2) COc1cc2c(cc1OC)C(=O)N(CCCCN1CCN(c3ccccc3OC)CC1)C2 19.3
3) COc1ccc2c(c1)CN(CCCN1CCN(c3ccccc3OC)CC1)C2=O 608

# ---- query molecule ----
Ki lookup needed for COc1ccc2c(c1)C(=O)N(CCCN1CCN(c3ccccc3OC)CC1)C2 , thanks.
323
